Origin of the recorded values: paper PMC11241330

TESTED SYSTEM: CDK4 (Homo sapiens)
Construct: purified recombinant CDK4/CyclinD3; with CyclinD3
Sequence (P11802 2-303): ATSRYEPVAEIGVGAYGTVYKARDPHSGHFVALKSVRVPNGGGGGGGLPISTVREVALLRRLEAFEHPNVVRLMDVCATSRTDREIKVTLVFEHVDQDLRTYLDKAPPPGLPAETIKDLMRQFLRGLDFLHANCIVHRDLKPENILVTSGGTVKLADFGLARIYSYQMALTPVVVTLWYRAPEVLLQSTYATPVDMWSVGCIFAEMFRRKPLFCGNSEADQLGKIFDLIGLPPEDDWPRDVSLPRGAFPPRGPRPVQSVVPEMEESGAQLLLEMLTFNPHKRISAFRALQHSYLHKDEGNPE
Sequence (P30281 whole entry partner): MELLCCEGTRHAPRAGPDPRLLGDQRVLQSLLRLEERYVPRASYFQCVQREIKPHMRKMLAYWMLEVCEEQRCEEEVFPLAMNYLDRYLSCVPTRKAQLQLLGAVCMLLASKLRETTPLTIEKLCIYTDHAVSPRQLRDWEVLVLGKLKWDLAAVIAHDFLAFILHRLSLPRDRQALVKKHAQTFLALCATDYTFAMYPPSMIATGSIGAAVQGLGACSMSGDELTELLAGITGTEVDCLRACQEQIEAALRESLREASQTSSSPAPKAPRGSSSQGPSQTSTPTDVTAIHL
ASSAY TEXT: luminescence kinase activity assay (BPS Bioscience CDK4/CyclinD3 kit #[…])
MEASURED QUANTITY: IC50 (µM)

QUERY SMILES | MEASURED QUANTITY | RECORDED RESULT
CC(C)n1cnc2c(F)cc(-c3nc(Nc4ccc(CN5CCN(Cc6ccc(F)cc6)CC5)cn4)ncc3F)cc21 | IC50 | 0.0237
